- System: GCN2(Kin.Dom.2,S808G);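 also: KINOMEscan kinase panel screen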
- Construct: gene EIF2AK4
- test conditions: concentration: 1 μM, replicates: in singlicate; n = 1
quantity kind: %Inh (%)
Numeric answer only, unit % assumed.

Recorded %Inh, per entry:
{"columns": ["compound", "quantity kind", "val"],
 "data": [
  ["COc1cc(Nc2ccnc3ccc(C(F)(F)F)cc23)cc(OC)c1OC", "%Inh", 9],
  ["CCC(=O)c1c(-c2ccccc2)c2cc(Cl)ccc2c(=O)n1Cc1cc(S(C)(=O)=O)n(CC(N)=O)n1", "%Inh", 0],
  ["COc1cc2nccc(Nc3cccc(Oc4ccccc4)c3)c2cc1OC.Cl", "%Inh", 0],
  ["O=C(Nc1ccc2c(c1)OCO2)NC1CCN(c2ccnc(NCc3ccc(F)cc3)n2)CC1", "%Inh", 1],
  ["Nc1ncnc2c1ncn2-c1cccc(F)c1", "%Inh", 0],
  ["CCS(=O)c1ccc(-c2coc3ccc(-c4nnc(C)o4)cc23)cc1 (stereo not shown)", "%Inh", 0]
]}

Provide measured %Inh value, entry: CCC(=O)c1c(-c2ccccc2)c2cc(Cl)ccc2c(=O)n1Cc1cc(C(=O)NC2CC2)n(C)n1
0

Indicate the recorded %Inh value for this compound: O=C1NC(=O)C(c2ccccc2)=C1Nc1cccc(O)c1
0

Tell us which %Inh value is on record for Nc1nc(-c2ccccc2F)c(-c2ccnc3ccccc23)s1
6

Quote %Inh reported for COc1cc2ncn(-c3cc(OCc4ccc(S(C)(=O)=O)cc4)c(C(N)=O)s3)c2cc1OC please.
0

Query %Inh for COc1cc2ncn(-c3cc(OCc4ccncc4)c(C(N)=O)s3)c2cc1OC
0

State, in one line, measured %Inh of O=C(Nc1n[nH]c2cc(-c3ccccc3F)ccc12)C1CC1
0

Using known records, supply %Inh for CCn1c(-c2ccoc2)nc2cnccc21
0

Please report the measured %Inh for CCc1nc(-c2cccc(C)c2)c(-c2ccncc2)s1
3

Identify measured %Inh corresponding to COc1cccc(-n2cnc3c(N)ncnc32)c1
8

Report %Inh, nothing else, for this compound: COc1cc(OC)cc(-c2cc3cnc(N)nc3nc2NC(=O)NC(C)(C)C)c1
3
